meta.source: patent US20210269525A1

Target: T1, human CD3e (T-cell surface glycoprotein CD3 epsilon chain) (human, UniProt P07766 23-207)
T1 construct: Target of the anti-hCD3e antibodies on human PBMC, Jurkat cells and cells expressing human CD3e; on T cells it is part of the CD3/TCR complex; also called hCD3e; CD3e on human PBMC
Assay: flow cytometry, human PBMC, antibody 0.1 ug/mL, anti-human IgG Fc-Alexa Fluor647 (1:500), anti-hTcRβ-PerCP (1:30)
Each record here notes measured upper left quadrant, percent of cells AF647+ / hTcRβ-PerCP-.
Note: unit % is implicit; provide only the numeric part.

Use the examples below as a reference point.
[[record]]
binder = "10A4-H2K2-IgG1-LALA (antibody, V domains shown, Humanized; human IgG1 with LALA mutations; also called H2K2 (humanized 10A4)) VH: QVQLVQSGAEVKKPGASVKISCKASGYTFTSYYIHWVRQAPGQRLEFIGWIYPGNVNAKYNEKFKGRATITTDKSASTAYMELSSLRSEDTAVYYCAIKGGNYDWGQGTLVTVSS VL: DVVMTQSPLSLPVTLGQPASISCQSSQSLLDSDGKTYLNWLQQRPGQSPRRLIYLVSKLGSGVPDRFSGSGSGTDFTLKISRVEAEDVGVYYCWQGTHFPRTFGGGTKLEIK"
result = 8.05

[[record]]
binder = "10A4-H4K2-IgG1-LALA (antibody, V domains shown, Humanized; human IgG1 with LALA mutations; also called H4K2 (humanized 10A4)) VH: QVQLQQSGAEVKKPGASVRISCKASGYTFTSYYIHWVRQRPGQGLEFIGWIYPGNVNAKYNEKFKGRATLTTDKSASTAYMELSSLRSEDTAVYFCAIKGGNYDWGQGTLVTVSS VL: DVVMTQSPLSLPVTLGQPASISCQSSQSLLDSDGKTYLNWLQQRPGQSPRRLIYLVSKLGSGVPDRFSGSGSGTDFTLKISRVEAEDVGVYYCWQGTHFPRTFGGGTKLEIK"
result = 8.54

[[record]]
binder = "10A4-H1K1-IgG1-LALA (antibody, V domains shown, Humanized; human IgG1 with LALA mutations; also called H1K1 (humanized 10A4)) VH: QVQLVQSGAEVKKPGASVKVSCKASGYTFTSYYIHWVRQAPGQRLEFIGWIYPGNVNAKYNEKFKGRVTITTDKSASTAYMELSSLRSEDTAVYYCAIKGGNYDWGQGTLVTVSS VL: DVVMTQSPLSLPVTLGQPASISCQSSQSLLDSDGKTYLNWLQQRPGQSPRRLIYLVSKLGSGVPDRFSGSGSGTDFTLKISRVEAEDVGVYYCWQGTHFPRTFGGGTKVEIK"
result = 9.8

[[record]]
binder = "10A4-H1K2-IgG1-LALA (antibody, V domains shown, Humanized; human IgG1 with LALA mutations; also called H1K2 (humanized 10A4)) VH: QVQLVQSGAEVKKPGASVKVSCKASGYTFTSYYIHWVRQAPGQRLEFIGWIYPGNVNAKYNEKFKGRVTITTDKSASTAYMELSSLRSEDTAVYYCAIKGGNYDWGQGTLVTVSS VL: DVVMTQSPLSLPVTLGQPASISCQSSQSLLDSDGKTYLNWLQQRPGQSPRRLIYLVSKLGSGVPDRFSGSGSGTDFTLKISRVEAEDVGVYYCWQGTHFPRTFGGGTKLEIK"
result = 10.8


// moving on: another record for upper left quadrant, percent of cells AF647+ / hTcRβ-PerCP-
Read the entry 10A4-H4K1-IgG1-LALA (antibody, V domains shown, Humanized; human IgG1 with LALA mutations; also called H4K1 (humanized 10A4)) VH: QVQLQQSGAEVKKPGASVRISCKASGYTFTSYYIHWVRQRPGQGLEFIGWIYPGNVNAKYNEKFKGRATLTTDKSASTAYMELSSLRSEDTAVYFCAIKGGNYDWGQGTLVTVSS VL: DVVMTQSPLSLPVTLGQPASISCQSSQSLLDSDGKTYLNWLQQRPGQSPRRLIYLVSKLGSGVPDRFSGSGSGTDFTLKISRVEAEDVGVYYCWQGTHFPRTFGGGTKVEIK and write its reported upper left quadrant, percent of cells AF647+ / hTcRβ-PerCP-. 9.91
